Biological target: segments of rabbit duodenum (Oryctolagus cuniculus)
Sequence (G1T803 1-400): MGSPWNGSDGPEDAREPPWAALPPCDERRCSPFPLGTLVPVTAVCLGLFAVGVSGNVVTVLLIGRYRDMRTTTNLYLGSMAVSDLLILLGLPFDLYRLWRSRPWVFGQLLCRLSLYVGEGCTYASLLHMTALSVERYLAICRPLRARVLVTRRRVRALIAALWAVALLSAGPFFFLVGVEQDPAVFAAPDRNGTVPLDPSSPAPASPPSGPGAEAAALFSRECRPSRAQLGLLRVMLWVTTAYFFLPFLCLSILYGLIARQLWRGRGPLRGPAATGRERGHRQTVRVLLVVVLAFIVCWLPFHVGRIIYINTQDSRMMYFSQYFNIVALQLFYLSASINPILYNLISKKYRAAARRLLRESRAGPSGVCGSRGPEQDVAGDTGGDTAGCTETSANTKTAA
Assay: Rabbit duodenal smooth muscle strip tissue bath assay
Type: cell-based
Conditions: negative logarithm of the dose giving 50% of the maximal response to motilin; isotonic contraction of rabbit duodenum segments
Peptide text beside a SMILES is read from it. * marks the point of attachment. X4 = CCN(CC)[C@@H](Cc1ccccc1)C(=O)*
measurement_kind: pEC50
Answers are plain numbers.

INPUT: Give pEC50 only, for CC[C@H](C)[C@H](NC(=O)[C@@H]1CCCN1C(=O)[C@@H](NC(=O)[C@H](Cc1ccccc1)N(CC)CC)C(C)C)C(=O)N[C@@H](Cc1ccccc1)C(=O)N[C@H](C(=O)N[C@@H](Cc1ccc(O)cc1)C(=O)NCC(=O)N[C@@H](CCC(=O)O)C(=O)N[C@@H](CC(C)C)C(=O)N[C@@H](CCC(N)=O)C(=O)N[C@@H](CCCNC(=N)N)C(=O)N[C@@H](CC(C)C)C(=O)N[C@@H](CCC(N)=O)C(N)=O)[C@@H](C)O [[Et2 Phe^1, Leu^13]pMOT(1-14) amide] (X4-VPIFTYGELQRLQ-NH2) , using segments of rabbit duodenum (Oryctolagus cuniculus) data.
OUTPUT: 7.54

* * *

Molecular target: segments of rabbit duodenum (Oryctolagus cuniculus)
Assay: Rabbit duodenal smooth muscle strip tissue bath assay
Type: cell-based
Conditions: negative logarithm of the dose giving 50% of the maximal response to motilin; isotonic contraction of rabbit duodenum segments
Square brackets hold non-standard residues; d marks the D form. Peptide text beside a SMILES is read from it. * marks the point of attachment. X1 = C[N+](C)(C)[C@@H](Cc1ccccc1)C(=O)*; NMeF = CN[C@@H](Cc1ccccc1)C(=O)O
measurement_kind: pEC50
Numbers only.

Answered cases to consult:
INPUT: Give pEC50 only, for CC[C@H](C)[C@H](NC(=O)[C@@H]1CCCN1C(=O)[C@@H](NC(=O)[C@H](Cc1ccccc1)NC)C(C)C)C(=O)N[C@@H](Cc1ccccc1)C(=O)N[C@H](C(=O)N[C@@H](Cc1ccc(O)cc1)C(=O)NCC(=O)N[C@@H](CCC(=O)O)C(=O)N[C@@H](CC(C)C)C(=O)N[C@@H](CCC(N)=O)C(=O)N[C@@H](CCCNC(=N)N)C(=O)N[C@@H](CC(C)C)C(=O)N[C@@H](CCC(N)=O)C(=O)O)[C@@H](C)O [[N-MePhe^1, Leu^13]pMOT(1-14)] (H-[NMeF]VPIFTYGELQRLQ-OH) , using segments of rabbit duodenum (Oryctolagus cuniculus) data.
OUTPUT: 7.64

INPUT: Give pEC50 only, for CC[C@H](C)[C@H](NC(=O)[C@H](C)NC(=O)[C@@H](NC(=O)[C@@H](N)Cc1ccccc1)C(C)C)C(=O)N[C@@H](Cc1ccccc1)C(=O)N[C@H](C(=O)N[C@@H](Cc1ccc(O)cc1)C(=O)NCC(=O)N[C@@H](CCC(=O)O)C(=O)N[C@@H](CC(C)C)C(=O)N[C@@H](CCC(N)=O)C(=O)N[C@H](CCCNC(=N)N)C(=O)N[C@@H](CC(C)C)C(=O)N[C@@H](CCC(N)=O)C(N)=O)[C@@H](C)O (H-FVAIFTYGELQ[dR]LQ-NH2) , using segments of rabbit duodenum (Oryctolagus cuniculus) data.
OUTPUT: 7.76

INPUT: Give pEC50 only, for CC[C@H](C)[C@H](NC(=O)[C@H](C)NC(=O)[C@@H](NC(=O)[C@H](Cc1ccccc1)[N+](C)(C)C)C(C)C)C(=O)N[C@@H](Cc1ccccc1)C(=O)N[C@H](C(=O)N[C@@H](Cc1ccc(O)cc1)C(=O)NCC(=O)N[C@@H](CCC(=O)O)C(=O)N[C@@H](CC(C)C)C(=O)N[C@@H](CCC(N)=O)C(=O)N[C@@H](CCCNC(=N)N)C(=O)N[C@@H](CC(C)C)C(=O)N[C@@H](CCCCN)C(N)=O)[C@@H](C)O (X1-VAIFTYGELQRLK-NH2) , using segments of rabbit duodenum (Oryctolagus cuniculus) data.
OUTPUT: 7.58

INPUT: Give pEC50 only, for CC[C@H](C)[C@H](NC(=O)[C@@H]1CCCN1C(=O)[C@@H](NC(=O)[C@H](Cc1ccccc1)[N+](C)(C)C)C(C)C)C(=O)N[C@@H](Cc1ccccc1)C(=O)N[C@H](C(=O)N[C@@H](Cc1ccc(O)cc1)C(=O)NCC(=O)N[C@@H](CCC(=O)O)C(=O)N[C@@H](CC(C)C)C(=O)N[C@@H](CCC(N)=O)C(=O)N[C@@H](CCCNC(=N)N)C(=O)N[C@@H](CC(C)C)C(=O)N[C@@H](CCC(N)=O)C(N)=O)[C@@H](C)O (X1-VPIFTYGELQRLQ-NH2) , using segments of rabbit duodenum (Oryctolagus cuniculus) data.
OUTPUT: 7.48

INPUT: Give pEC50 only, for CC[C@H](C)[C@H](NC(=O)[C@@H]1CCCN1C(=O)[C@@H](NC(=O)[C@@H](N)Cc1ccccc1)C(C)C)C(=O)N[C@@H](Cc1ccccc1)C(=O)N[C@H](C(=O)N[C@@H](Cc1ccc(O)cc1)C(=O)NCC(=O)N[C@@H](CCC(=O)O)C(=O)N[C@@H](CC(C)C)C(=O)N[C@@H](CCC(N)=O)C(=O)N[C@H](CCCNC(=N)N)C(=O)N[C@@H](CC(C)C)C(=O)N[C@@H](CCC(N)=O)C(N)=O)[C@@H](C)O [[D-Arg^13, Leu^13]pMOT(1-14) amide] (H-FVPIFTYGELQ[dR]LQ-NH2) , using segments of rabbit duodenum (Oryctolagus cuniculus) data.
OUTPUT: 7.50

INPUT: Give pEC50 only, for CC[C@H](C)[C@H](NC(=O)[C@@H]1CCCN1C(=O)[C@@H](NC(=O)[C@@H](N)Cc1ccccc1)C(C)C)C(=O)N[C@@H](Cc1ccccc1)C(=O)N[C@H](C(=O)N[C@@H](Cc1ccc(O)cc1)C(=O)NCC(=O)N[C@@H](CCC(=O)O)C(=O)N[C@@H](CC(C)C)C(=O)N[C@@H](CCC(N)=O)C(=O)N[C@H](CCCNC(=N)N)C(=O)N[C@@H](CC(C)C)C(=O)N[C@@H](CCCCN)C(N)=O)[C@@H](C)O (H-FVPIFTYGELQ[dR]LK-NH2) , using segments of rabbit duodenum (Oryctolagus cuniculus) data.
OUTPUT: 7.13

INPUT: Give pEC50 only, for CC[C@H](C)[C@H](NC(=O)[C@@H]1CCCN1C(=O)[C@@H](NC(=O)[C@H](Cc1ccccc1)[N+](C)(C)C)C(C)C)C(=O)N[C@@H](Cc1ccccc1)C(=O)N[C@H](C(=O)N[C@@H](Cc1ccc(O)cc1)C(=O)NCC(=O)N[C@@H](CCC(=O)O)C(=O)N[C@@H](CC(C)C)C(=O)N[C@@H](C)C(=O)N[C@H](CCCNC(=N)N)C(=O)N[C@@H](CC(C)C)C(=O)N[C@H](CCC(N)=O)C(N)=O)[C@@H](C)O (X1-VPIFTYGELA[dR]L[dQ]-NH2) , using segments of rabbit duodenum (Oryctolagus cuniculus) data.
OUTPUT: 7.25

Next up:
INPUT: Give pEC50 only, for CC[C@H](C)[C@H](NC(=O)[C@H](C)NC(=O)[C@@H](NC(=O)[C@H](Cc1ccccc1)[N+](C)(C)C)C(C)C)C(=O)N[C@@H](Cc1ccccc1)C(=O)N[C@H](C(=O)N[C@@H](Cc1ccc(O)cc1)C(=O)NCC(=O)N[C@@H](CCC(=O)O)C(=O)N[C@@H](CC(C)C)C(=O)N[C@@H](CCC(N)=O)C(=O)N[C@H](CCCNC(=N)N)C(=O)N[C@@H](CC(C)C)C(=O)N[C@@H](CCC(N)=O)C(N)=O)[C@@H](C)O [[Me3 N^+ Phe^1, Ala^3, D-Arg^12, Leu^13 pMOT(1-14) amide] (X1-VAIFTYGELQ[dR]LQ-NH2) , using segments of rabbit duodenum (Oryctolagus cuniculus) data.
OUTPUT: 7.57

* * *

Target: motilin receptor (Oryctolagus cuniculus, UniProt G1T803)
Construct: from tissue; host or cells: rabbit antral smooth muscle membranes
Sequence (G1T803 1-400): as above
Test: Determination of motilin receptor binding affinity (displacement of [125I-Tyr7, Nle13]motilin(porcine))
Parameters: species or system rabbit
Settings: negative logarithm of the concentration displacing 50% of [125I-Tyr7, Nle13]motilin(porcine) from rabbit antral smooth muscle membranes; read-out: pIC50 (converted)
Square brackets hold non-standard residues; d marks the D form. Peptide text beside a SMILES is read from it. * marks the point of attachment. X1 = C[N+](C)(C)[C@@H](Cc1ccccc1)C(=O)*; Cha = N[C@@H](CC1CCCCC1)C(=O)O; dCha = N[C@H](CC1CCCCC1)C(=O)O
Consider the following compounds; for each one, report its IC50.

Answered cases to consult:
INPUT: Tell me its IC50 given CC[C@H](C)[C@H](NC(=O)[C@@H]1CCCN1C(=O)[C@@H](NC(=O)[C@@H](N)Cc1ccccc1)C(C)C)C(=O)N[C@@H](CC1CCCCC1)C(=O)N[C@H](C(=O)N[C@@H](Cc1ccc(O)cc1)C(=O)NCC(=O)N[C@@H](CCC(=O)O)C(=O)N[C@@H](CC(C)C)C(=O)N[C@@H](CCC(N)=O)C(=O)N[C@H](CCCNC(=N)N)C(=O)N[C@@H](CC(C)C)C(=O)N[C@@H](CCC(N)=O)C(N)=O)[C@@H](C)O (H-FVPI[Cha]TYGELQ[dR]LQ-NH2) as the entry.
OUTPUT: 6.76 nM

INPUT: Tell me its IC50 given CC[C@H](C)[C@H](NC(=O)[C@H](C)NC(=O)[C@@H](NC(=O)[C@H](N)CC1CCCCC1)C(C)C)C(=O)N[C@@H](Cc1ccccc1)C(=O)N[C@H](C(=O)N[C@@H](Cc1ccc(O)cc1)C(=O)NCC(=O)N[C@@H](CCC(=O)O)C(=O)N[C@@H](CC(C)C)C(=O)N[C@@H](C)C(=O)N[C@H](CCCNC(=N)N)C(=O)N[C@@H](CC(C)C)C(=O)N[C@H](CCCCN)C(N)=O)[C@@H](C)O (H-[dCha]VAIFTYGELA[dR]L[dK]-NH2) as the entry.
OUTPUT: 0.933 nM

INPUT: Tell me its IC50 given CC[C@H](C)[C@H](NC(=O)[C@@H]1CCCN1C(=O)[C@@H](NC(=O)[C@H](Cc1ccccc1)[N+](C)(C)C)C(C)C)C(=O)N[C@@H](Cc1ccccc1)C(=O)N[C@H](C(=O)N[C@@H](Cc1ccc(O)cc1)C(=O)NCC(=O)N[C@@H](CCC(=O)O)C(=O)N[C@@H](CC(C)C)C(=O)N[C@@H](CCC(N)=O)C(=O)N[C@H](CCCNC(=N)N)C(=O)N[C@@H](CC(C)C)C(=O)N[C@@H](CCCCN)C(N)=O)[C@@H](C)O (X1-VPIFTYGELQ[dR]LK-NH2) as the entry.
OUTPUT: 1.17 nM

INPUT: Tell me its IC50 given CC[C@H](C)[C@H](NC(=O)[C@H](C)NC(=O)[C@@H](NC(=O)[C@H](Cc1ccccc1)[N+](C)(C)C)C(C)C)C(=O)N[C@@H](Cc1ccccc1)C(=O)N[C@H](C(=O)N[C@@H](Cc1ccc(O)cc1)C(=O)NCC(=O)N[C@@H](CCC(=O)O)C(=O)N[C@@H](CC(C)C)C(=O)N[C@@H](C)C(=O)N[C@H](CCCNC(=N)N)C(=O)N[C@@H](CC(C)C)C(=O)N[C@@H](CCCCN)C(N)=O)[C@@H](C)O (X1-VAIFTYGELA[dR]LK-NH2) as the entry.
OUTPUT: 1.91 nM

Continuing:
INPUT: Tell me its IC50 given CC[C@H](C)[C@H](NC(=O)[C@H](C)NC(=O)[C@@H](NC(=O)[C@H](Cc1ccccc1)[N+](C)(C)C)C(C)C)C(=O)N[C@@H](Cc1ccccc1)C(=O)N[C@H](C(=O)N[C@@H](Cc1ccc(O)cc1)C(=O)NCC(=O)N[C@@H](CCC(=O)O)C(=O)N[C@@H](CC(C)C)C(=O)N[C@@H](CCC(N)=O)C(=O)N[C@H](CCCNC(=N)N)C(=O)N[C@@H](CC(C)C)C(=O)N[C@@H](CCC(N)=O)C(N)=O)[C@@H](C)O (X1-VAIFTYGELQ[dR]LQ-NH2) as the entry.
OUTPUT: 2.63 nM
